Known percent gated cells (viability) of a selection of molecules
test system: primary human AML cells; test: Primary screen: differentiation of primary human AML cells in vitro (CD34/CD15, HTS flow cytometry); details: 2 μM (commercial libraries) or 1 μg/ml (IRIC)
Where a name gives a salt, the structure may show the parent alone.

# MOLECULE, percent gated cells (viability) (%)
records = [
    ("CNC(=O)c1cc2c(cn1)[nH]c1ccccc12 [UM0119840, N-Methyl-beta-carboline-3-carboxamide]", 86.20),
    ("COc1c(-c2ccccc2)oc2c(OC)cccc2c1=O", 80.80),
    ("O=c1c2ccccc2oc2ccccc12", 81.40),
    ("O[C@H]1[C@H]2[C@H](O)CCCN2C[C@H]1O", 81.90),
    ("COC(=O)c1ccc2c(c1)[nH]c1ncnc(NCCCN3CCCCC3)c12", 78.40),
    ("COc1ccc(-c2cc(=O)c3ccccc3o2)cc1", 78.10),
    ("CC(C)=CCc1c(O)cc2oc(C)cc(=O)c2c1O", 83.20),
    ("Cc1cc(=O)oc2cc(O)c(O)cc12", 84.90),
    ("Oc1ccc(C=Cc2cc(O)cc(O)c2)cc1", 78.00),
    ("C[C@@H]1Cc2c(Cl)cc(C(=O)N[C@@H](Cc3ccccc3)C(=O)O)c(O)c2C(=O)O1", 82.10),
    ("N[C@@H]1C[C@H]1c1ccccc1 [UM0118428, Tranylcypromine hydrochloride]", 77.80),
    ("COc1ccc2c(c1)[nH]c1c(C)nccc12.Cl [UM0118303, Harmine hydrochloride]", 78.60),
    ("COc1cc(-c2oc3cc(O)ccc3c(=O)c2O)ccc1O", 78.50),
    ("COc1c(O)cc2oc(-c3ccc(O)c(O)c3)cc(=O)c2c1O", 83.60),
    ("NC(=Nc1ccccc1)NC(=O)c1nc(Cl)c(N)nc1N [UM0120143, Phenamil methanesulfonate]", 84.10),
    ("O=c1c2ccccc2oc2ccc(O)cc12 [UM0121186, 2-Hydroxyxanthone]", 82.40),
    ("CC[C@H](C)C(=O)O[C@H]1C[C@@H](C)C=C2C=C[C@H](C)[C@H](CC[C@@H]3C[C@@H](O)CC(=O)O3)[C@H]21", 81.00),
    ("COc1ccc(-c2cc(=O)c3c(OC(C)=O)cc(OC(C)=O)cc3o2)cc1 [UM0120987, Acacetin diacetate]", 81.60),
    ("COc1ccc(C2CC(=O)c3ccc(OC)cc3O2)cc1 (centres unmarked)", 81.20),
    ("COc1ccc(-c2oc3cc(O)cc(O)c3c(=O)c2O)cc1 [UM0119298, Kaempferide]", 82.40),
    ("N[C@@H]1C[C@H]1c1ccccc1.N[C@H]1C[C@@H]1c1ccccc1.O=S(=O)(O)O [UM0121497, Tranylcypromine sulfate]", 76.50),
    ("CC(=O)Oc1ccc(-c2cc(=O)c3c(OC(C)=O)cc(OC(C)=O)cc3o2)cc1 [UM0121171, Apigenin triacetate]", 80.10),
    ("C[C@]12CC[C@H](O)C[C@H]1CC[C@@H]1[C@@H]2CC[C@]2(C)[C@@H](C3=CC(=O)OC3)[C@@H](O)C[C@]12O", 77.10),
    ("O=c1cc(-c2ccc(O)c(O)c2)oc2cc(O)cc(O)c12", 79.80),
    ("COc1ccc(-c2cc(=O)c3ccc(O)cc3o2)cc1", 82.40),
    ("COc1cc(OC)c2c(=O)c(-c3ccc4c(c3)OCO4)coc2c1", 83.90),
    ("CO[C@@H]1[C@H](OC(=O)/C=C/C=C/C=C/C=C/C(=O)O)CC[C@]2(CO2)[C@H]1[C@@]1(C)O[C@@H]1CC=C(C)C", 78.60),
    ("COc1cc2c(cc1O)C[C@H]1c3c(cc(O)c(OC)c3-2)CCN1C", 87.00),
    ("CCOC(=O)c1oc2c(OC)c(O)cc(O)c2c(=O)c1-c1cc(OC)c(OC)c(OC)c1", 86.30),
    ("COc1cc(OC)c2c(=O)cc(-c3ccccc3)oc2c1", 82.00),
    ("CC(C)=CCOc1cc2oc(=O)ccc2cc1O", 81.10),
    ("COc1ccc(-c2coc3c(O)c(OC)ccc3c2=O)cc1", 82.10),
]

----------
tested on: primary human AML cells; test: Primary screen: differentiation of primary human AML cells in vitro (CD34/CD15, HTS flow cytometry); details: compared to DMSO
Where a name gives a salt, the structure may show the parent alone.
MEASUREMENT_TYPE: % increase CD34+CD15− (cell counts)

# COMPOUND, MEASUREMENT_TYPE, VALUE_OBSERVED
rows = [
    ("O.O.O=c1c(O)c(-c2ccc(O)c(O)c2)oc2cc(O)cc(O)c12 [UM0118473, Quercetine dihydrate]", "% increase CD34+CD15− (cell counts)", "69.64%"),
    ("O=C(Nc1ccc2c(c1)OCCO2)c1sc2ccccc2c1Cl [UM0045609]", "% increase CD34+CD15− (cell counts)", "109.14%"),
    ("COc1ccc(-c2cc(=O)c3c(O)cc(O)cc3o2)cc1O [UM0119400, Diosmetine]", "% increase CD34+CD15− (cell counts)", "20.75%"),
    ("N[C@@H]1C[C@H]1c1ccccc1 [UM0118428, Tranylcypromine hydrochloride]", "% increase CD34+CD15− (cell counts)", "−10.11%"),
]

----------
test system: primary human AML cells; test: Primary screen: differentiation of primary human AML cells in vitro (CD34/CD15, HTS flow cytometry); conditions: 2 μM (commercial libraries) or 1 μg/ml (IRIC)
Measured percent gated cells (viability) by item

# MOLECULE, percent gated cells (viability)
records = [
    ("CCOC(=O)c1c(C)cc(O)c(C)c1O [UM0120789, Methylorsellinic acid ethyl ester]", "84.00%"),
    ("CCCCCCC(=O)CCCCCC/C=C/C[C@@H](O)[C@H](O)[C@@](N)(CO)C(=O)O [UM0119199, Myriocin]", "79.90%"),
    ("Oc1cc(O)cc(/C=C/c2ccccc2)c1 [UM0120964, Pinosylvin]", "69.90%"),
    ("C[C@]12CCC(=O)C=C1CC[C@@H]1[C@@H]2CC[C@]2(C)C(=O)CC[C@@H]12 [UM0119559, 4-Androstene-3,17-dione]", "82.30%"),
    ("O=c1c(O)c(-c2ccc(O)cc2)oc2cc(O)cc(O)c12 [UM0118952, Kaempferol]", "78.90%"),
    ("CO[C@H]1C[C@@H]2CC[C@@H](C)[C@@](O)(O2)C(=O)C(=O)N2CCCC[C@H]2C(=O)O[C@H]([C@H](C)C[C@@H]2CC[C@@H](O)[C@H](OC)C2)CC(=O)[C@H](C)/C=C(\\C)[C@@H](O)[C@@H](OC)C(=O)[C@H](C)C[C@H](C)/C=C/C=C/C=C/1C [UM0119219, Rapamycin]", "72.30%"),
]

----------
tested on: primary human AML cells; experiment: Primary screen: differentiation of primary human AML cells in vitro (CD34/CD15, HTS flow cytometry); conditions: compared to DMSO
Parameter % increase CD34+CD15− (cell counts): see the listing below.
MEASUREMENT_TYPE: % increase CD34+CD15− (cell counts) (%)

# COMPOUND, VALUE_OBSERVED
rows = [
    ("CC(C)=CCOc1cc2oc(=O)ccc2cc1O [UM0120947, Prenyletin]", 56.71),
    ("O=c1cc(-c2ccccc2)oc2cc(O)cc(O)c12 [UM0118950, Chrysin]", 108.30),
    ("C[C@]12CC[C@H](O)C[C@H]1CC[C@@H]1[C@@H]2CC[C@]2(C)[C@@H](C3=CC(=O)OC3)[C@@H](O)C[C@]12O [UM0119342, Gitoxigenin]", "−40.00"),
    ("Cc1cc(=O)oc2cc(O)c(O)cc12 [UM0120835, 4-Methylesculetin]", 104.34),
]

----------
tested on: primary human AML cells; experiment: Primary screen: differentiation of primary human AML cells in vitro (CD34/CD15, HTS flow cytometry); details: compared to DMSO
MEASUREMENT_TYPE: % increase CD34+ (cell counts) (%)

# COMPOUND, TARGET_OR_TEST_SYSTEM, UOM, VALUE_OBSERVED
records = [
    ("CCCCCCC(=O)CCCCCC/C=C/C[C@@H](O)[C@H](O)[C@@](N)(CO)C(=O)O", "primary human AML cells", "%", "−36.05"),
    ("O=C(Nc1ccc2c(c1)OCCO2)c1sc2ccccc2c1Cl", "primary human AML cells", "%", 56.89),
    ("C[C@@H]1O[C@@H](O[C@H]2[C@H](Oc3cc(O)c4c(=O)c(O)c(-c5ccc(O)cc5)oc4c3)O[C@H](CO)[C@@H](O)[C@@H]2O)[C@H](O)[C@H](O)[C@H]1O [UM0119289, Kaempferol-7-Neohesperidoside]", "primary human AML cells", "%", 29.49),
    ("COc1cc(-c2oc3cc(O)cc(O)c3c(=O)c2O)ccc1O", "primary human AML cells", "%", 28.67),
    ("COc1ccc(-c2cc(=O)c3ccc(O)cc3o2)cc1", "primary human AML cells", "%", 31.59),
    ("CC(C)=CCOc1cc2oc(=O)ccc2cc1O", "primary human AML cells", "%", 15.58),
    ("COc1cc2c(cc1O)C[C@H]1c3c(cc(O)c(OC)c3-2)CCN1C", "primary human AML cells", "%", 10.21),
]
